Every entry's value here was drawn from PubChem BioAssay (NCATS).

Experiment: Quantitative highthroughput screen to assess conditional lethalithy of SEM cells grown in RPMI1640 with unreated serum (RPMI+s) (AID 1963883); note: nearly all actives have a fitted effect of over 35% in size;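 for viability: 100% = DMSO wells and 0% = empty wells without cells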
Conditions: SEM B-ALL cells, CellTiter-Glo viability, 48 h; series mostly up to 45.8 µM
Inconclusive results are not listed. Calls of active or inactive are those of the source. Calls come from the whole dose curve; as a rule, active = well fitted cell-killing curve with a large enough effect; inconclusive = small, poorly fitted or top-dose-only effect, or effect the other way; inactive = no such curve, though single readings can be large or run the other way.
// classify into t for active, f for inactive

Please review the entries below; each comes with its answer.
INPUT: Could you kindly confirm the outcome this assay logged for C[C@@]12O[C@@H](C[C@]1(O)CO)n1c3ccccc3c3c4c(c5c6ccccc6n2c5c31)CNC4=O ?
OUTPUT: t

INPUT: What was the test verdict on N#CC1(c2ccc(NC(=O)c3cccnc3NCc3ccncc3)cc2)CCCC1 ?
OUTPUT: f

INPUT: Which outcome was entered for the molecule CN1C2CCC1CC(OC(=O)C(CO)c1ccccc1)C2 (stereo not given) in this test?
OUTPUT: f

INPUT: Test call, this molecule: CN(C)c1cccc(-c2c3c(=O)n(-c4ccccc4Cl)[nH]c3cc(=O)n2C)c1
OUTPUT: t

INPUT: Just curious, what result did COc1cc2c(N3CCN(C(=O)Nc4ccc(OC(C)C)cc4)CC3)ncnc2cc1OCCCN1CCCCC1 get here?
OUTPUT: t

Consider the record given below.
INPUT: Tell me the assay call for OCCN1C[C@H](O)[C@@H](O)[C@H](O)[C@@H]1CO please.
OUTPUT: f

---

# activity (max response) per entry
Experiment: Cellular viability qHTS for adrenocortical cancer (ACC) cell line SW-13 (AID 1963989);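 note: cells grown in serum-free medium with ITS supplement; % is set by controls: 0 for no effect and ±100 for the full control effect; nearly all actives have a fitted effect of over 65% in size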
Settings: SW-13 ACC cells viability, CellTiter-Glo, 48 h; active compounds read low
Records with an inconclusive call do not appear. The source made the active and inactive calls. Calls come from the whole dose curve; as a rule, active = well fitted cell-killing curve with a large enough effect; inconclusive = small, poorly fitted or top-dose-only effect; inactive = flat fitted curve, though single readings scatter.

Below are worked cases with known answers.
INPUT: May I ask what activity (max response) has been recorded for CC(C)(O)[C@H]1CC[C@@](C)([C@H]2[C@@H](O)C[C@@]3(C)[C@@H]4C[C@H](O[C@@H]5O[C@H](CO)[C@@H](O)[C@H](O)[C@H]5O)[C@H]5C(C)(C)[C@@H](O[C@@H]6OC[C@@H](O)[C@H](O)[C@H]6O)CC[C@@]56C[C@@]46CC[C@]23C)O1 ?
OUTPUT: 1.01% (inactive)

INPUT: Recorded activity (max response) for O=c1c(O)c(-c2cc(O)c(O)c(O)c2)oc2cc(O)cc(O)c12 , please?
OUTPUT: -0.163% (inactive)

INPUT: Requested field: activity (max response). Item: COCC(=O)Nc1c(I)c(C(=O)NCC(O)CO)c(I)c(C(=O)N(C)CC(O)CO)c1I (stereo unspecified)
OUTPUT: -3.53% (inactive)

INPUT: I have this compound here, CCCN1CCN(c2ccc(C(=O)NC3(C(=O)NCC#N)CCCCC3)cc2)CC1 , and I need its recorded activity (max response).
OUTPUT: -11.1% (inactive)

INPUT: May I ask what activity (max response) has been recorded for CCN(CC)CCc1nc(-c2ccccc2)no1 ?
OUTPUT: -1.01% (inactive)

New cases:
INPUT: If you can, please state the reported activity (max response) value of Clc1cc2c(NC3CCCC3)nnc(-c3ccncc3)c2cc1Cl .
OUTPUT: -2.48% (inactive)

INPUT: I am curious: what activity (max response) value has been reported for CCO[C@@H]1OC(=O)C[C@@H]1NC(=O)[C@@H]1CCCN1C(=O)[C@@H](NC(=O)c1ccc(N)c(Cl)c1)C(C)(C)C ?
OUTPUT: -11.3% (inactive)

INPUT: What value of activity (max response) has been reported for the following compound? CC1(O)CC(c2nc(-c3ccc4ccc(-c5ccccc5)nc4c3)c3c(N)nccn23)C1 (stereo unspecified)
OUTPUT: -21% (inactive)

INPUT: # query: activity (max response) of entry CCN1CCCC(OC(=O)C(c2ccccc2)c2ccccc2)C1 (stereo unspecified)
OUTPUT: -12.5% (inactive)

INPUT: Request the reported activity (max response) associated with CC(=O)SCC(Cc1ccccc1)C(=O)NCC(=O)OCc1ccccc1 (stereo unspecified)
OUTPUT: -5.9% (inactive)

INPUT: What does the record list as activity (max response) for CCCCNc1ccc(C(=O)OCCN(C)C)cc1 ?
OUTPUT: 4.21% (inactive)

INPUT: Find the recorded activity (max response) belonging to Nc1cccc2c1C(=O)N(C1CCC(=O)NC1=O)C2=O (stereo unspecified) and report it.
OUTPUT: 11.8% (inactive)

INPUT: For the compound CCCCN(CCN(CCCC)C(=O)N1CCOCC1)C(=O)N1CCOCC1 , what activity (max response) is on record?
OUTPUT: 13.7% (inactive)

INPUT: What does the data say about its activity (max response)? Entry: CCOC(=O)C(=O)c1csc(NC=O)n1
OUTPUT: 8.44% (inactive)

INPUT: Fill blank: measured activity (max response) of the compound CNC[C@H](O)[C@@H](O)[C@H](O)[C@H](O)CO is ____.
OUTPUT: 1.47% (inactive)

INPUT: For COc1ccc(-c2c(-c3ccc(O)cc3O)n[nH]c2C)cc1 , what is its reported activity (max response)?
OUTPUT: -14.3% (inactive)

INPUT: Using the record for CC1(C)CCC(C)(C)c2cc(NC(=O)c3ccc(C(=O)O)cc3)ccc21 , report its activity (max response).
OUTPUT: -9.24% (inactive)

INPUT: # activity (max response) lookup, item Nc1ncnc2c1c(-c1cccc(OCc3ccccc3)c1)cn2C1CC(CN2CCC2)C1 (stereo unspecified)
OUTPUT: 12.1% (inactive)

INPUT: Param item = CN(C)CCN(Cc1cccs1)c1ccccn1 ; retrieve measured activity (max response).
OUTPUT: 15.3% (inactive)

INPUT: What value of activity (max response) has been reported for the following compound? CC1CC(OC(=O)C(O)c2ccccc2)CC(C)(C)N1C (stereo unspecified)
OUTPUT: 2.77% (inactive)

INPUT: Entry OCC(CO)N[C@H]1C[C@](O)(CO)[C@@H](O)[C@H](O)[C@H]1O : reported activity (max response) = ?
OUTPUT: 4.01% (inactive)

---

Experiment: Quantitative highthroughput screen to assess conditional lethalithy of SEM cells grown in Human Plasma-Like Medium with dialyzed fetal bovine serum (HPLM+ds) (AID 1963882); note: nearly all actives have a fitted effect of over 35% in size
Conditions: SEM B-ALL cells in HPLM+ds, CellTiter-Glo viability, 48 h; series mostly up to 45.8 µM
Records with an inconclusive call do not appear. Calls of active or inactive are those of the source. Calls come from the whole dose curve; as a rule, active = well fitted cell-killing curve with a large enough effect; inconclusive = small, poorly fitted or top-dose-only effect, or effect the other way; inactive = no such curve, though single readings can be large or run the other way.
Your response should consist of one outcome taken from active, inactive

Solved entries (count: 4):
INPUT: What was the test verdict on NC(=O)c1cccc(-c2cccc(OC(=O)NC3CCCCC3)c2)c1 ?
OUTPUT: inactive

INPUT: Fill in: this test's call for O=c1c(O)c(-c2cc(O)c(O)c(O)c2)oc2cc(O)cc(O)c12 is ___
OUTPUT: inactive

INPUT: Short answer needed: outcome of this test for CC(C=CC=C(C)C=CC1=C(C)CCCC1(C)C)=CC=CC=C(C)C=CC=C(C)C=CC1=C(C)CCCC1(C)C ?
OUTPUT: inactive

INPUT: Name the outcome recorded for CC1(C)CCC(c2ccc(Cl)cc2)=C(CN2CCN(c3ccc(C(=O)NS(=O)(=O)c4ccc(N[C@H](CCN5CCOCC5)CSc5ccccc5)c(S(=O)(=O)C(F)(F)F)c4)cc3)CC2)C1 in the assay.
OUTPUT: active

For the next question, use this compound.
INPUT: Can you look up the reported call for COc1cc2c(Oc3ccc(-c4cnc(Nc5ccc(F)cc5)n(C)c4=O)cc3F)ccnc2cc1OCCCN1CCOCC1 for me?
OUTPUT: active

---

Test: Quantitative highthroughput screen to assess conditional lethalithy of SEM cells grown in Human Plasma-Like Medium with dialyzed fetal bovine serum (HPLM+ds) (AID 1963882); note: nearly all actives have a fitted effect of over 35% in size
Details: SEM B-ALL cells in HPLM+ds, CellTiter-Glo viability, 48 h; series mostly up to 45.8 µM
Records with an inconclusive call do not appear. Active and inactive are the calls of the source. Calls follow the shape of the dose curve; as a rule, active = well fitted cell-killing curve with a large enough effect; inconclusive = small, poorly fitted or top-dose-only effect, or effect the other way; inactive = no such curve, though single readings can be large or run the other way.
// allowed return values: active, inactive

# example entries with known answers
INPUT: Check the results log: what was the call for OC(CCN1CCCCC1)(c1ccccc1)C1CC2C=CC1C2 (stereo not given) ?
OUTPUT: inactive

INPUT: Check the results log: what was the call for C=C1C[C@@]2(O)O[C@@]3(C[C@H]2C(C)C)[C@H](C)CC[C@H]13 ?
OUTPUT: inactive

INPUT: Dear all, I need the recorded test outcome for Nc1nc(NCCNc2ncc(-n3ccnc3)c(-c3ccc(Cl)cc3Cl)n2)ccc1[N+](=O)[O-] , thank you.
OUTPUT: inactive

INPUT: Given CCN(CCO)CCCOc1ccc2c(Nc3cc(CC(=O)Nc4cccc(F)c4)[nH]n3)ncnc2c1 , state the outcome it received in this test.
OUTPUT: active

Next item in the queue.
INPUT: Record request — test call for CCOC(=O)C(C)(C)Oc1ccc(Cl)cc1
OUTPUT: inactive

---

Assay: Viability qHTS for spleen associated tyrosine kinase inhibitor (SYKi) naive MV4-11 cells (AID 1963823); note: nearly all actives have a fitted effect of over 40% in size
Conditions: MV4-11 AML viability, CellTiter-Glo luminescence, 72 h; series mostly up to 45 µM
Results filed as inconclusive are left out. Activity calls are given as the source filed them. The call rests on the fitted dose curve; in most records, active means well fitted cell-killing curve with a large enough effect; inconclusive means small, poorly fitted or top-dose-only effect, or effect the other way; inactive means no such curve, though single readings can be large or run the other way.
Pick one and only one: 1.0 (active), 0.0 (inactive)

Study these solved cases before continuing.
INPUT: What did this assay record as the result for COc1ccc(COc2cc3oc(=O)c4cc(C(C)O)ccc4c3cc2OC)cc1 (centres undefined) ?
OUTPUT: 0.0

INPUT: Just curious, what result did CCCCN(CCCC)CCC(O)c1cc2c(Cl)cc(Cl)cc2c2cc(C(F)(F)F)ccc12 (centres undefined) get here?
OUTPUT: 1.0

INPUT: Entry CCN(CC)C(=O)C(c1ccccc1)N1CCN(c2ccc(NC(=O)c3ccccc3-c3cccnc3)cc2F)CC1 (centres undefined) : call = ?
OUTPUT: 0.0

INPUT: // return assay outcome for CN(C)C/C=C/C(=O)Nc1cc2c(Nc3ccc(F)c(Cl)c3)ncnc2cc1O[C@H]1CCOC1
OUTPUT: 1.0

INPUT: What is the recorded call for this molecule in the test? CN(C)CCN(Cc1cccs1)c1ccccn1
OUTPUT: 0.0

New cases:
INPUT: Please state the recorded outcome for this molecule: Cc1nnc(-c2ccc(-c3ccc(C(=O)Nc4ccc(O)c(N5CCN(C)CC5)c4)cc3)c(C)c2)o1
OUTPUT: 0.0

INPUT: Hi, do you know how COc1ccc2c(c1)C(C(=O)N(Cc1ccc(N(C)C)cc1)c1ccc(C(C)C)cc1)CCC2 (centres undefined) came out in this test?
OUTPUT: 1.0

INPUT: Given COc1cc2c(cc1OC)CN(C(=O)/C=C/c1c(-c3ccccc3)n(C)c3ncccc13)CC2 , state the outcome it received in this test.
OUTPUT: 1.0

INPUT: Outcome logged for NC(=O)c1ccccc1Nc1ccnc(Nc2cccc(O)c2)n1 in this assay:
OUTPUT: 1.0
